The reported measurements were obtained from paper PMC9352680.

Field: Kd. Provide a value for each of the binders that follow.
Tested On: T1, PUF4 RNA-binding domain (Saccharomyces cerevisiae, UniProt P25339 537-888)
T1 sequence: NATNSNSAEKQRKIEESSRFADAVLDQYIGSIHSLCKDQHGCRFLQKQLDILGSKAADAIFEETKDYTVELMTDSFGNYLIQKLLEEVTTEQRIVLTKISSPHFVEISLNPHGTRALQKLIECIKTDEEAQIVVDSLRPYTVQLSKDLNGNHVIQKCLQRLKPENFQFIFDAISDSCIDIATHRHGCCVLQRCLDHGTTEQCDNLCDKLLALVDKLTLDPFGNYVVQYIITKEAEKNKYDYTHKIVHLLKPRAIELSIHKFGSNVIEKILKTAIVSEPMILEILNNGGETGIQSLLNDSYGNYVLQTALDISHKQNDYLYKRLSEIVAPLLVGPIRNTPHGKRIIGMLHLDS
Procedure Text: Mg; RNA-MaP; 20 mM Na-HEPES pH 7.4, 30 mM KOAc, 0.75 mM MgCl2, 0.1% Tween-20, 5% glycerol, 0.1 mg/mL BSA, 2 mM DTT; 25 C; 0.0125-409.6 nM protein
Condition Context: tags: N-His6-TEV cleaved; C-SNAP kept, Cy3B-labelled; label: tethered on chip by stalled RNA polymerase
The response must be a number in nM with no trailing unit.

INPUT: Endpoint output: Kd of UCUCUUACUGUAUAUUAUAUCUCUU (ssRNA) [Id_ii_S1_P4E.2_K4.1_C4.2_[C-2A]_[T-1C]_H4.1_A4.1_F4.1_T4.2_[G10T]_[T11A]] . Value?
OUTPUT: 1.83

INPUT: Endpoint output: Kd of Ic_S2_P4E.1_K4.1_C4.1_H4.1_A4.1_[T5G]_[A6C]_[T7C]_F4.1_[T8A]_[A9T]_T4.1 (ssRNA) RNA: UUUGAUUAAUAUGAUAUCGUUCUUUCUUGUAGCCAUUUCUUUCUCGAUAUCAUAUUAAUCUUU . Value?
OUTPUT: 402

INPUT: Endpoint output: Kd of Ic_S2_P4E.1_K4.1_C4.1_H4.1_A4.1_[T5A]_[A6C]_[T7C]_F4.1_[T8C]_[A9G]_T4.1 (ssRNA) RNA: UUUGAUUAAUAUGAUAUCGUUCUUUCUUGUAACCCGUUCUUUCUCGAUAUCAUAUUAAUCUUU . Value?
OUTPUT: 742

INPUT: Endpoint output: Kd of Id_ii_S2_P3E.2_K3.1_C3.2_[C-2T]_H3.1_A3.1_F3.1_T3.2_[T9A]_[A10C] (ssRNA) RNA: UUUGAUUAAUAUGAUAUCGUUCUUUCUUUUGUAUAUAACUUCUUUCUCGAUAUCAUAUUAAUCUUU . Value?
OUTPUT: 4.14

INPUT: Endpoint output: Kd of Ic_S4_P4E.1_K4.1_C4.1_H4.1_A4.1_[T5C]_[A6C]_F4.1_[T8G]_[A9C]_T4.1 (ssRNA) RNA: UUUGACAACUGAUCGUUCUUUCUUGUACCUGCUUCUUUCUCGAUCAGUUGUCUUU . Value?
OUTPUT: 93
